Every entry's value here was drawn from paper PMC10176470.

TARGET ENTITY: caspase-3 (C3) (Homo sapiens)
Sequence (P42574 29-175 limits assumed): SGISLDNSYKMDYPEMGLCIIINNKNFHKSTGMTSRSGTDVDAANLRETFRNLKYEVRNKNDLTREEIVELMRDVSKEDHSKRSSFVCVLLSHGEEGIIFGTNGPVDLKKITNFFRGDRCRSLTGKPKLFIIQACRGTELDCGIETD
VALUE TYPE: IC50

molecule="C=CS(=O)(=O)N1C[C@H](C(=O)Nc2ccc(OC(F)(F)F)cc2)C[C@@H](c2ccccc2)C1 (racemic) [(±)-3-t]" endpoint_value="> 500 µM"
molecule="C=CS(=O)(=O)N1C[C@H](C(=O)Nc2ccc(OC(F)(F)F)cc2)C[C@H](c2ccccc2)C1 (racemic) [(±)-3-c]" endpoint_value="> 500 µM"
molecule="C=CS(=O)(=O)N1C[C@H](C(=O)Nc2ccc(OC(F)(F)F)cc2)C[C@@H](c2ccccc2)C1 [3a]" endpoint_value="> 500 µM"
